# TEST TARGET: T1, Soluble CD28-Ig (human, UniProt P10747 19-152, biotin-conjugated (NHS-biotin) in the labelled-ligand FACS assays)
# T1 construct: extracellular domain; Bought from R&D Systems; also called sCD28-Ig; CD28-Ig Fc; not shown: Fc portion of human IgG1
# ASSAY TEXT: two-colour FACS profile on transfected cells; score of preference for CD28-Ig over CTLA-4-Ig vs WT hB7-1
Recorded Binding Score for the following binders
# respond with the number and nothing more

Look over these answered cases.
Round 2 CD28F10-2 (ligand) ITPKSVTKRVKETVMLSCDYNTSTEELTSLRIYWQKDSKMVLAILPGKVQVWPEYKNRTITDMNDNPRIVILALRLSDSGTYTCVIQKPDLKGAYKLEHLTSVRLMIRADFPVPSITDIGHPAPNVKRIRCSASGDFPEPRLAWMEDGEELNAVNTTVDQDLDTELYSVSSELDFNVTNNHSIVCLIKYGELSVSQIFPWSKPKQEPPIDQLPFWVIIPVSGALVLTAVVLYCLACRHVARWKRTRRNEETVGTERLSPIYLGSAQSSG
1
Round 2 CD28E5-2 (ligand) ITPKSVTKRVKETVMLSCDYNTSTEELTSLRIYWQKDSKMVLAILPGKVQVWPEYKNRTITDMNDNPRIVILALRLSDSGTYTCVIQKPDLKGAYKLEHLASVRLMIRADFPVPTINDLGNPSPNIRRLICSTSGGFPRPHLYWLENGEELNATNTTLSQDPETKLYMISSELDFNVTNNRSIVCLIKYGELSVSQIFPWSKPKQEPPIDQLPFWVIIPVSGALVLTAVVLYCLACRHVARWKRTRRNEETVGTERLSPIYLGSAQSSG
0
Round 2 CD28G1-9 (ligand) ITPKSVTKRVKETVMLSCDYNTSTEELTSLRIYWQKDSKMVLAILPGKVQVWPEYKNRTITDMNDNPRIVILALRLSDSGTYTCVIQKPVLKGAYKLEHLTSVRLMIRADFPVPSITDIGHPAPNVKRIRCSASGGFPEPRLAWMEDGEELNAVNTTVDQDLDTELYSVSSELDFNVTNNHSIVCLIKYGELSVSQIFPWSKPKQEPPIDQLPFWVIIPVSGALVLTAVVLYCLACRHVARWKRTRRNEETVGTERLSPIYLGSAQSSG
1
Round 2 CD28B6-6 (ligand) ITPKSVTKRVKETVMLSCDYSTSTEELTSLRIYWQKDSKMVLAILPGKVQVWPEYKNRTITDMNDNPRIVILALRLSDKGTYTCVIQKPVLKGAYKLEHLTSVTLSIRADFPVPSITDIGHPAPNVKRIRCSASGGFPEPRLAWMEDGEELNAVNTTVDQDLDTELYSVSSELDFNATNNHSIVCLIKYGELSVSQIFPWSKPKQEPPIDQLPFWVIVPVSGALVLTAVVLYCLACRHVAR
1

input: Report Binding Score for Round 2 CD28D8-9 (ligand) ITPKSVTKRVKETVMLSCDYSTSTEELTSLRIYWQKDSKMVLAILPGKVQVWPEYKNRTITDMNDNPRIVILALRLSDSGTYTCVIQKPVLKGAYKLEHLTSVRLMIRADFPVPTINDLGNPSPNIRRLICSTSGGFPRPHLYWLENGEELNATNTTVSQDPGTELYMISSELDFNVTNNHSIVCLIKYGELSVSQIFPWSKPKQEPPIDQLPFWVIIPVSGALVLTAVVLYCLACRHVARWKRTRRNEETVGTERLSPIYLGSAQSSG please.
output: 1
